Active and inactive are the calls of the source.
Below are compounds with their Kd as measured on BMP-2-inducible protein kinase (Homo sapiens).
Sequence (Q9NSY1 whole entry): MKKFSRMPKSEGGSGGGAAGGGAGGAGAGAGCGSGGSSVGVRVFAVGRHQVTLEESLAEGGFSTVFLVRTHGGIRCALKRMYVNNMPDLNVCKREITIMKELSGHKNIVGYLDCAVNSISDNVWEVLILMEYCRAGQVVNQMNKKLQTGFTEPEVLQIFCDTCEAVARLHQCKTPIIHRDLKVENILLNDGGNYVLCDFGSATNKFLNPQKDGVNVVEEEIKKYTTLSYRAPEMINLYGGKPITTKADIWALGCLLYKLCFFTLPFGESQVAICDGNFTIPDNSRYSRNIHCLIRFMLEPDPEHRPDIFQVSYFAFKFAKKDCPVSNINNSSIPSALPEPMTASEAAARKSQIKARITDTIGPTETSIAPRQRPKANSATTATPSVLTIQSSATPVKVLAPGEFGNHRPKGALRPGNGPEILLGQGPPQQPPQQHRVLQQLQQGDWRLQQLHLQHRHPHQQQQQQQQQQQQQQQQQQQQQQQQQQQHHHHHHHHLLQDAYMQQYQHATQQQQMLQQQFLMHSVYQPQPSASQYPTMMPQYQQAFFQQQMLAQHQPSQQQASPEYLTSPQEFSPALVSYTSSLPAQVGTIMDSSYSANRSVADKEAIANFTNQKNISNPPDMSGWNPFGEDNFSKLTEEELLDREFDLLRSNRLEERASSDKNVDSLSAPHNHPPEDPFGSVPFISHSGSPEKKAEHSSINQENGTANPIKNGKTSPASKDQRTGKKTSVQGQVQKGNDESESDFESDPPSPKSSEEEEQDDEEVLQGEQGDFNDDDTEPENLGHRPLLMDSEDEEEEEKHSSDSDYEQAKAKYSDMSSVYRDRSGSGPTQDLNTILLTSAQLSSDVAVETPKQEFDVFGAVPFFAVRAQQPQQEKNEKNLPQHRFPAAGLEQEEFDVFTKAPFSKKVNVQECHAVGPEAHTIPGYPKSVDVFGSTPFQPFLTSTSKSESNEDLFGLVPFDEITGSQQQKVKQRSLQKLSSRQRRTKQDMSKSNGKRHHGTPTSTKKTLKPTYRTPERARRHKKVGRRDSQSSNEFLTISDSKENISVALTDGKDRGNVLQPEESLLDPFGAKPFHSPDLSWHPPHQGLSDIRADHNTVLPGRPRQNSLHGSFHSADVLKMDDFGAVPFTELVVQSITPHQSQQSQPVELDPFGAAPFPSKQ
result-type: Kd

compound	result-value
Cn1cc(-c2cnc3ccc4ccc(CS(=O)(=O)NCc5ccccn5)cc4c(=O)c3c2)cn1 [MK-8033]	> 30 µM (inactive)
CCNC(=O)C#Cc1ccc2c(c1)NC(=O)/C2=C(\Nc1ccc(CN(C)C)cc1)c1ccccc1	> 30 µM (inactive)
CC(C)c1cc(CNc2nc(Nc3cc(C4CC4)[nH]n3)cc(N3CCN(C)CC3)n2)on1 [XL-228]	0.014 µM (active)
CN1CCN(CCOc2cc(OC3CCOCC3)c3c(Nc4c(Cl)ccc5c4OCO5)ncnc3c2)CC1 [SARACATINIB]	> 30 µM (inactive)
O=C1NC(=O)[C@@H](c2cn3c4c(cccc24)CCC3)[C@@H]1c1c[nH]c2ccccc12 [TIVANTINIB]	> 30 µM (inactive)
FC(F)(F)c1ccc(/C=C/c2nc(COc3ccc(CCCCn4ccnn4)cc3)co2)cc1 [MUBRITINIB]	> 30 µM (inactive)
CNC(=O)c1cc(Oc2ccc(NC(=O)Nc3cc(C(C)(C)C)nn3-c3ccc4ncccc4c3)c(F)c2)ccn1 [REBASTINIB]	> 30 µM (inactive)
O=C(Cc1ccc(-c2ccc(OCCN3CCOCC3)cc2)cn1)NCc1ccccc1 [TIRBANIBULIN]	> 30 µM (inactive)
COc1c(OCCCN2CCOCC2)ccc2c1N=C(NC(=O)c1cnc(N)nc1)N1CCN=C21 [COPANLISIB]	> 30 µM (inactive)
O=C(Nc1cc(C(F)(F)F)cc(C(F)(F)F)c1)c1cc(Cl)ccc1O [IMD-0354]	> 30 µM (inactive)
CO[C@H]1C[C@@H]2CC[C@@H](C)[C@@](O)(O2)C(=O)C(=O)N2CCCC[C@H]2C(=O)O[C@H]([C@H](C)C[C@@H]2CC[C@@H](OC(=O)C(C)(CO)CO)[C@H](OC)C2)CC(=O)[C@H](C)/C=C(\C)[C@@H](O)[C@@H](OC)C(=O)[C@H](C)C[C@H](C)/C=C/C=C/C=C/1C [TEMSIROLIMUS]	> 30 µM (inactive)
NC(=O)c1c(OCc2c(F)cc(Br)cc2F)nsc1NC(=O)NCCCCN1CCCC1 [OSI-632]	> 30 µM (inactive)
CNC(=O)c1cccc2cc(Oc3ccnc4cc(OCC5(N)CC5)c(OC)cc34)ccc12 [LUCITANIB]	> 30 µM (inactive)
Cn1cc(-c2cnn3c(N)c(Br)c([C@@H]4CCCNC4)nc23)cn1 [SCH-900776]	2.68 µM
NC(=O)Nc1cc(-c2cccc(F)c2)sc1C(=O)N[C@H]1CCCNC1 [AZD-7762]	0.181 µM (active)
Cc1cc(C(=O)NOCCO)c(Nc2ccc(I)cc2F)n(C)c1=O [AZD-8330]	> 30 µM (inactive)

###

target: Tyrosine-protein kinase ABL1 (Homo sapiens, UniProt P00519); further: in the data inactive means no Kd found up to 30 µM
Sequence (P00519 whole entry): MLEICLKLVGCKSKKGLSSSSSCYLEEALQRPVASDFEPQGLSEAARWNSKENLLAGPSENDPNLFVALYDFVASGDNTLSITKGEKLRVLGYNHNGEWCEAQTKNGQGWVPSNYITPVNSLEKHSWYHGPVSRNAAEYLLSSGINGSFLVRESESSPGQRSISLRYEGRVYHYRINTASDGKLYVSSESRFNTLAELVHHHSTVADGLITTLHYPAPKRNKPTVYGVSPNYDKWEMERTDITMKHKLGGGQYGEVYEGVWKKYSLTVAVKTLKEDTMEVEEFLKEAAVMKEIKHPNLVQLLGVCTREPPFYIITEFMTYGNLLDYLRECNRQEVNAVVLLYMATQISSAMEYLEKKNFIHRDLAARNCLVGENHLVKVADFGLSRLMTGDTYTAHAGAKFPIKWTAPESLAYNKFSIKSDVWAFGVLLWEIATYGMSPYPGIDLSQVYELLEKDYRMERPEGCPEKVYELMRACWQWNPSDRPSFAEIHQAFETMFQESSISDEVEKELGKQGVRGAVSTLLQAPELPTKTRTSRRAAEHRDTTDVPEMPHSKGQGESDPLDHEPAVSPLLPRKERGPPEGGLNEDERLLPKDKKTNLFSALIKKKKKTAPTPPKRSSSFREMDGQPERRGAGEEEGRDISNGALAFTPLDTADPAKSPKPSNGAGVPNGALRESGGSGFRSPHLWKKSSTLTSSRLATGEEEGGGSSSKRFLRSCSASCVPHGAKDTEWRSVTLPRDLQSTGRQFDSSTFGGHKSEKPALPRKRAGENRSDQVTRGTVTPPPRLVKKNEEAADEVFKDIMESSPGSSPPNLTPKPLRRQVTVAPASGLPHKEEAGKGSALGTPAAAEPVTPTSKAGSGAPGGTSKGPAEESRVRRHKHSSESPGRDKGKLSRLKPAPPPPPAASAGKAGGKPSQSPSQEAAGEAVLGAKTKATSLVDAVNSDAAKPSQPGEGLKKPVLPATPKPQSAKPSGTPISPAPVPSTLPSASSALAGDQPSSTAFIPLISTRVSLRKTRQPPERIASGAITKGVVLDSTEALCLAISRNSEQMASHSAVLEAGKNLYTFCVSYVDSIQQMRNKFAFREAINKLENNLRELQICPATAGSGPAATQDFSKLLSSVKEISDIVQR
Calls of active or inactive are those of the source.
Labels: YES (active), NO (inactive)

compound	measured-on	group
C[C@@H](NC(=O)c1ncnc(N)c1Cl)c1ncc(C(=O)Nc2cc(C(F)(F)F)c(Cl)cn2)s1 [TOVORAFENIB]	Tyrosine-protein kinase ABL1 (Homo sapiens, UniProt P00519)	YES
COc1c(OCCCN2CCOCC2)ccc2c1N=C(NC(=O)c1cnc(N)nc1)N1CCN=C21 [COPANLISIB]	Tyrosine-protein kinase ABL1 (Homo sapiens, UniProt P00519)	NO
CNC(=O)c1cccc2cc(Oc3ccnc4cc(OCC5(N)CC5)c(OC)cc34)ccc12 [LUCITANIB]	Tyrosine-protein kinase ABL1 (Homo sapiens, UniProt P00519)	NO
Cc1cccc(-c2nn3c(c2-c2ccnc4ccc(C(N)=O)cc24)CCC3)n1 [GALUNISERTIB]	Tyrosine-protein kinase ABL1 (Homo sapiens, UniProt P00519)	NO
C[C@H]1CNCCCN1S(=O)(=O)c1cccc2cncc(F)c12	Tyrosine-protein kinase ABL1 (Homo sapiens, UniProt P00519)	NO
CO[C@H]1C[C@@H]2CC[C@@H](C)[C@@](O)(O2)C(=O)C(=O)N2CCCC[C@H]2C(=O)O[C@H]([C@H](C)C[C@@H]2CC[C@@H](O)[C@H](OC)C2)CC(=O)[C@H](C)/C=C(\C)[C@@H](O)[C@@H](OC)C(=O)[C@H](C)C[C@H](C)/C=C/C=C/C=C/1C [SIROLIMUS]	Tyrosine-protein kinase ABL1 (Homo sapiens, UniProt P00519)	NO
C[C@@H](Oc1cc(C(=O)Nc2ccc(C(=O)N3CCN(C)CC3)cc2)nnc1N)c1c(Cl)ccc(F)c1Cl	Tyrosine-protein kinase ABL1 (Homo sapiens, UniProt P00519)	NO
